TARGET OR TEST SYSTEM: human P-selectin (Homo sapiens)
Construct: from tissue; host or cells: outdated human platelet packs from a blood bank
Sequence (P16109 42-830): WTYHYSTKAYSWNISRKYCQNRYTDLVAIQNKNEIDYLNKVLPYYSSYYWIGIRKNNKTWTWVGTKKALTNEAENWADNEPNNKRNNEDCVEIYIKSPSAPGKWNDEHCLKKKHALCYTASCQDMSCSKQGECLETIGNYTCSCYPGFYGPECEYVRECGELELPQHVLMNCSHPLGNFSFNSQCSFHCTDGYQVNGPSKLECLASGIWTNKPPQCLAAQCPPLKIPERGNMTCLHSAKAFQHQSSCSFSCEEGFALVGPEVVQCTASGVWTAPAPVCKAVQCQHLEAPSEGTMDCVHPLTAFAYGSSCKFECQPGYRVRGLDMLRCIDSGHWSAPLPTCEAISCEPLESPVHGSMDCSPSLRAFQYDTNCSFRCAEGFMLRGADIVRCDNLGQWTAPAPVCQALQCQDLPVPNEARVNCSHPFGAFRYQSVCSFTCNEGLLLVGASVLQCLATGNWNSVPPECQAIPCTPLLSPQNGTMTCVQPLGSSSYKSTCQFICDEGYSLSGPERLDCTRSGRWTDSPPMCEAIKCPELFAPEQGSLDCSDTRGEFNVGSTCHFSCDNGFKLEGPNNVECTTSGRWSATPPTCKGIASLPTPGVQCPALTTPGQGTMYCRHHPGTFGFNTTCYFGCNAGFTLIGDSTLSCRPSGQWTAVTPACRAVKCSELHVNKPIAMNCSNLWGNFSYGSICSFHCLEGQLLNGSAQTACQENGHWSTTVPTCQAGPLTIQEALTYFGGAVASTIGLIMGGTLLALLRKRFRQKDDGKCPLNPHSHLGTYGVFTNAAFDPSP
EXPERIMENT NOTES: Neutrophil adhesion to purified P-selectin immobilized on plastic wells (myeloperoxidase readout)
Format: cell-based
MEASUREMENT SETUP: inhibition of binding of human neutrophils to human P-selectin; head: 0.3 μM peptide, text b193: 300 μM; read-out: % INHIBITION AT 0.3 μM PEPTIDE CONC.
Residues, ends and D or L forms follow the SMILES beside them.
# inhibition at 300 µM values compiled below
Just the number please, in %, no unit attached.

>  <MOLECULE>
CC(C)C[C@H](NC(=O)[C@@H](NC(=O)[C@@H](N)CCCCN)C(C)C)C(=O)N1CCC[C@H]1C(=O)N[C@@H](Cc1ccc(O)cc1)C(=O)N[C@@H](Cc1ccc(O)cc1)C(=O)N[C@@H](CO)C(=O)N[C@@H](CO)C(=O)N[C@@H](Cc1ccc(O)cc1)C(=O)N[C@@H](Cc1ccc(O)cc1)C(=O)N[C@H](C(N)=O)C(C)C [SEQ ID NO: 5] (H-KVLPYYSSYYV-NH2)

>  <UNIT ABBREV>
%

>  <QUANTITATIVE RESULT>
102

$$$$
>  <MOLECULE>
CC(C)[C@H](NC(=O)[C@@H](N)CCCCN)C(=O)N[C@@H](CCC(N)=O)C(=O)N1CCC[C@H]1C(=O)N[C@@H](Cc1ccc(O)cc1)C(=O)N[C@@H](Cc1ccc(O)cc1)C(=O)N[C@@H](CO)C(=O)N[C@@H](CO)C(=O)N[C@@H](Cc1ccc(O)cc1)C(=O)N[C@@H](Cc1ccc(O)cc1)C(N)=O [SEQ ID NO: 22] (H-KVQPYYSSYY-NH2)

>  <UNIT ABBREV>
%

>  <QUANTITATIVE RESULT>
29

$$$$

Look up inhibition at 300 µM: CC(C)C[C@H](NC(=O)[C@@H](NC(=O)[C@@H](N)CCCCN)C(C)C)C(=O)N1CCC[C@H]1C(=O)N[C@@H](Cc1ccc(O)cc1)C(=O)NCC(=O)N[C@@H](CO)C(=O)N[C@@H](CO)C(=O)N[C@@H](Cc1ccc(O)cc1)C(=O)N[C@@H](Cc1ccc(O)cc1)C(N)=O [SEQ ID NO: 19] (H-KVLPYGSSYY-NH2)
34

Look up inhibition at 300 µM: CC(C)C[C@H](NC(=O)[C@@H](NC(=O)[C@@H](N)CCCCN)C(C)C)C(=O)N1CCC[C@H]1C(=O)N[C@@H](Cc1ccc(O)cc1)C(=O)N[C@@H](Cc1ccc(O)cc1)C(=O)N[C@@H](CO)C(=O)N[C@@H](C)C(=O)N[C@@H](Cc1ccc(O)cc1)C(=O)N[C@@H](Cc1ccc(O)cc1)C(N)=O [SEQ ID NO: 14] (H-KVLPYYSAYY-NH2)
18

Look up inhibition at 300 µM: CC(C)C[C@H](NC(=O)[C@@H](N)C(C)C)C(=O)N1CCC[C@H]1C(=O)N[C@@H](Cc1ccc(O)cc1)C(=O)N[C@@H](Cc1ccc(O)cc1)C(=O)N[C@@H](CO)C(=O)N[C@@H](CO)C(=O)N[C@@H](Cc1ccc(O)cc1)C(=O)N[C@@H](Cc1ccc(O)cc1)C(=O)N[C@H](C(N)=O)C(C)C [SEQ ID NO: 10] (H-VLPYYSSYYV-NH2)
66

Look up inhibition at 300 µM: CC(C)C[C@H](NC(=O)[C@@H](NC(=O)[C@H](CCCCN)NC(=O)[C@H](CC(N)=O)NC(=O)[C@@H](N)CC(C)C)C(C)C)C(=O)N1CCC[C@H]1C(=O)N[C@@H](Cc1ccc(O)cc1)C(=O)N[C@@H](Cc1ccc(O)cc1)C(=O)N[C@@H](CO)C(=O)N[C@@H](CO)C(=O)N[C@@H](Cc1ccc(O)cc1)C(=O)N[C@@H](Cc1ccc(O)cc1)C(=O)N[C@H](C(N)=O)C(C)C [SEQ ID NO: 3] (H-LNKVLPYYSSYYV-NH2)
100

Look up inhibition at 300 µM: CC(C)C[C@H](NC(=O)[C@H](Cc1ccc(O)cc1)NC(=O)[C@@H](N)CC(=O)O)C(=O)N[C@@H](CC(N)=O)C(=O)N[C@@H](CCCCN)C(=O)N[C@H](C(=O)N[C@@H](CC(C)C)C(=O)N1CCC[C@H]1C(=O)N[C@@H](Cc1ccc(O)cc1)C(=O)N[C@@H](Cc1ccc(O)cc1)C(=O)N[C@@H](CO)C(=O)N[C@@H](CO)C(=O)N[C@@H](Cc1ccc(O)cc1)C(=O)N[C@@H](Cc1ccc(O)cc1)C(N)=O)C(C)C [SEQ ID NO: 6] (H-DYLNKVLPYYSSYY-NH2)
61

###

TARGET OR TEST SYSTEM: human P-selectin (Homo sapiens, UniProt P16109)
Construct: from tissue; host or cells: outdated human platelet packs from a blood bank
EXPERIMENT NOTES: Neutrophil adhesion to purified P-selectin immobilized on plastic wells (myeloperoxidase readout)
Type: cell-based
MEASUREMENT SETUP: inhibition of binding of human neutrophils to human P-selectin; head: 0.3 μM peptide, text b193: 300 μM; read-out: % INHIBITION AT 0.3 μM PEPTIDE CONC.
Residues, ends and D or L forms follow the SMILES beside them.
MEASURED ATTRIBUTE: inhibition at 300 µM (%)
Just the number please, in %, no unit attached.

Look up inhibition at 300 µM: CC[C@H](C)[C@H](NC(=O)[C@H](CO)NC(=O)[C@H](CC(N)=O)NC(=O)[C@H](CC(C)C)NC(=O)[C@H](Cc1ccc(O)cc1)NC(=O)[C@@H](N)CCC(=O)O)C(=O)N[C@@H](CC(C)C)C(=O)N[C@@H](CO)C(=O)N[C@@H](Cc1ccc(O)cc1)C(=O)N[C@@H](CO)C(=O)N1CCC[C@H]1C(=O)N[C@@H](CO)C(=O)N[C@@H](Cc1ccc(O)cc1)C(=O)N[C@@H](Cc1ccc(O)cc1)C(=O)N[C@@H](Cc1c[nH]c2ccccc12)C(N)=O [SEQ ID NO: 23] (H-EYLNSILSYSPSYYW-NH2)
54
